Assay: Pharmacokinetics, dog
Format: in vivo, Beagle dogs
Settings: beagle, in vivo, po, 5 mg/kg, 5 mg/kg (study with 1 mg/kg IV)
endpoint: Tmax (h)

In [3]: df
Out[3]:
                    structure_smiles_string  reading
0  C[C@H](Nc1ncnc2[nH]cnc12)c1cc2cccc(Cl)c2c(=O)n1-c1ccccc1     1.33

###

The following molecules each carry a recorded IC50 for PI3K β (Homo sapiens).
endpoint: IC50

>>> df
                                    molecule    experimental_system   reading
 0  Cc1cccc2cc([C@H](C)Nc3nc(N)ncc3Cl)n(-c3ccccc3)c(=O)c12  PI3K β (Homo sapiens)   < 10 µM
 1  CCC(Nc1ncnc2[nH]cnc12)c1cc2cccc(C)c2c(=O)n1-c1c(F)cccc1F (stereo not shown)  PI3K β (Homo sapiens)   > 10 µM
 2  Cc1cccc2cc([C@H](C)Nc3ncnc4[nH]ccc34)n(C3CC3)c(=O)c12  PI3K β (Homo sapiens)  < 0.1 µM
 3  Cc1ccccc1-n1c(Cn2nc(-c3cccc(Cl)c3)c3c(N)ncnc32)cc2cccc(C)c2c1=O  PI3K β (Homo sapiens)   > 10 µM
 4  Cc1cccc2cc(Cn3nc(-c4cccc(O)c4)c4c(N)ncnc43)n(C(C)C)c(=O)c12  PI3K β (Homo sapiens)    < 1 µM
 5  CC(=O)Nc1nc2ccc(-c3nn(Cc4cc5cccc(Cl)c5c(=O)n4C4CC4)c4ncnc(N)c34)cc2s1  PI3K β (Homo sapiens)  < 0.1 µM
 6  Cc1ccccc1-n1c(Cn2nc(/C=C/C(N)=O)c3c(N)ncnc32)cc2cccc(C)c2c1=O  PI3K β (Homo sapiens)   < 10 µM
 7  Cc1cccc2cc(Cn3nc(-c4cc(O)cc(F)c4)c4c(N)ncnc43)n(C3CCC3)c(=O)c12  PI3K β (Homo sapiens)   < 10 µM
 8  Cc1ccccc1-n1c(Cn2nc(C(=O)NO)c3c(N)ncnc32)cc2cccc(C)c2c1=O  PI3K β (Homo sapiens)   < 10 µM
 9  Cc1ccccc1-n1c(Cn2nc(C#CCO)c3c(N)ncnc32)cc2cccc(C)c2c1=O  PI3K β (Homo sapiens)   > 10 µM
10  Cc1cccc2cc(Cn3nc(I)c4c(N)ncnc43)n(C(C)C)c(=O)c12  PI3K β (Homo sapiens)   > 10 µM
11  Cc1ccccc1-n1c(Cn2nc(-c3ccc(Cl)c(O)c3)c3c(N)ncnc32)cc2cccc(C)c2c1=O  PI3K β (Homo sapiens)   < 10 µM
12  Cc1cccnc1-n1c(Cn2nc(-c3cc(O)cc(F)c3)c3c(N)ncnc32)cc2ccccc2c1=O  PI3K β (Homo sapiens)   > 10 µM
13  CC(=O)Nc1nc2ccc(-c3nn(Cc4cc5cccc(C)c5c(=O)n4-c4ccccc4C)c4ncnc(N)c34)cc2s1  PI3K β (Homo sapiens)   < 10 µM
14  Cc1ccccc1-n1c(Cn2nc(-c3ccc4ncnc(N)c4c3)c3c(N)ncnc32)cc2cccc(C)c2c1=O  PI3K β (Homo sapiens)   > 10 µM
15  COc1ccccc1-n1c(Cn2nc(-c3cc(O)cc(F)c3)c3c(N)ncnc32)cc2cccc(C)c2c1=O  PI3K β (Homo sapiens)   < 10 µM
